system.tested: human CD74, naturally expressed on cells (Raji, Daudi, M4A4, NCI-H747 cells; human tonsil tissue) (human) (UniProt P04233)
assay.name: cell-based or functional assay
Can you tell me % kill of Daudi cells at 10 µg/mL for the items I'm about to list?
Numeric answer only, unit % assumed.

binder HuMab-CD74-011-mcMMAF (antibody, IgG1, V domains shown, drug-linker mcMMAF alkylated to the cysteines of the reduced antibody (DAR 3.9 by HIC), Antibody-drug conjugate of HuMab-CD74-011 (IgG1,kappa)) VH: QVQLVESGGGVVQPGRSLRLSCAASGFTFSSYGMHWVRQAPDKGLEWVAVIWYDGSNKYYADSVKGRFTISRDNSKNTLYLQMNSLRAEDTAVYYCARGGTLVRGAMYGTDVWGQGTTVTVSS VL: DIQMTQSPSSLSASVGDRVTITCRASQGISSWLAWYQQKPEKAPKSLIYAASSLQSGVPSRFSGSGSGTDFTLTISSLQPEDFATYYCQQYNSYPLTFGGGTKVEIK , % kill of Daudi cells at 10 µg/mL observed: 92

Just so you know, measured % kill of Daudi cells at 10 µg/mL for HuMab-CD74-006-vcMMAE (antibody, IgG1, V domains shown, drug-linker vcMMAE alkylated to the cysteines of the reduced antibody (DAR 4.0), Antibody-drug conjugate of HuMab-CD74-006 (IgG1,kappa); also called vcMMAE-conjugated HuMab-CD74-006) VH: QVQLVESGGGVVQPGRSLRLSCAASGFTFSSYAMHWVRQAPGKGLEWVAVISYDGSIKYYADSVKGRFTISRDNSKNTLYLQMNSLRVEDTAVFYCARGREITSQNIVILLDYWGQGTLVTVTS VL: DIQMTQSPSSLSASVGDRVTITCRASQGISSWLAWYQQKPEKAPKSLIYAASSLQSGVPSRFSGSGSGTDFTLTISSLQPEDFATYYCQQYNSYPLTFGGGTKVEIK came out at 85

% kill of Daudi cells at 10 µg/mL in this record for HuMab-CD74-005-vcMMAE (antibody, IgG1, V domains shown, drug-linker vcMMAE alkylated to the cysteines of the reduced antibody (DAR 3.9-4.0), Antibody-drug conjugate of HuMab-CD74-005 (IgG1,kappa); also called vcMMAE-conjugate of HuMab-CD74-005) VH: QVQLVESGGGVVQPGRSLRLSCAASGFTFSSYAMHWVRQAPGKGLEWVAVISYDGSNKYYADSVKGRFTISRDNSKNTLYLQMNSLRAEDTAVYYCASGRYYGSGSYSSYFDYWGQGTLVTVSS VL: DIQMTQSPSSLSASVGDRVTITCRASQGISSWLAWFQQKPEKAPKSLIYAASSLQSGVPSRFSGSGSGTDFTLTISSLQPEDFATYYCQQYNSYPLTFGGGTKVEIK : 85
